- target-desc: P. aeruginosa EF-Tu (Pseudomonas aeruginosa, UniProt P09591)
- Construct: made in house; host or cells: E. coli Rosetta 2(DE3), pET101/D-TOPO
- Sequence (P09591 whole entry): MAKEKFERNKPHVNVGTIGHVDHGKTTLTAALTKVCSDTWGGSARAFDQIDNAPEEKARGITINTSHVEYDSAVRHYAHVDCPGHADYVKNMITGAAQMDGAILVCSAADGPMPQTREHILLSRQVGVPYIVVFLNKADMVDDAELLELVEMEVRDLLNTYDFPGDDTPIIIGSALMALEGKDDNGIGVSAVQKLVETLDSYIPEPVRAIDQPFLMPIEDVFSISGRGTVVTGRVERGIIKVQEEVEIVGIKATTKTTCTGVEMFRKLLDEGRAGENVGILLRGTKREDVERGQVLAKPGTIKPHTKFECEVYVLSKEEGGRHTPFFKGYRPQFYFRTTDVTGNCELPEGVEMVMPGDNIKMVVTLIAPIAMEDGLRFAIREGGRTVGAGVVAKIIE
- protocol-notes: Equilibrium dissociation constants of EF-Tu·GDP and EF-Tu·GTP complexes (dilution, nitrocellulose filter binding)
- study-conditions: EF-Ts 0.5 ×10^−3 μM; 37°C; read-out: K GTP
parameter: Kd (nM)
One number for each entry, in nM.

Query block: For Nc1nc2c(ncn2[C@@H]2O[C@H](COP(=O)(O)OP(=O)(O)OP(=O)(O)O)[C@@H](O)[C@H]2O)c(=O)[nH]1 , write its Kd.
Result block: 190

###

- target-desc: P. aeruginosa EF-Tu (Pseudomonas aeruginosa)
- Construct: made in house; host or cells: E. coli Rosetta 2(DE3), pET101/D-TOPO
- protocol-notes: Equilibrium dissociation constants of EF-Tu·GDP and EF-Tu·GTP complexes (dilution, nitrocellulose filter binding)
- study-conditions: EF-Ts 0.5 ×10^−3 μM; 23°C; read-out: K GTP
parameter: pKd
Give bare numbers, as −log10 of the molar value.

Query block: Recall and state the measured pKd for Nc1nc2c(ncn2[C@@H]2O[C@H](COP(=O)(O)OP(=O)(O)OP(=O)(O)O)[C@@H](O)[C@H]2O)c(=O)[nH]1 [GTP] .
Result block: 6.90

###

- target-desc: P. aeruginosa EF-Tu (Pseudomonas aeruginosa, UniProt P09591)
- Construct: made in house; host or cells: E. coli Rosetta 2(DE3), pET101/D-TOPO
- protocol-notes: Equilibrium dissociation constants of EF-Tu·GDP and EF-Tu·GTP complexes (dilution, nitrocellulose filter binding)
- study-conditions: EF-Ts 0; 0°C; read-out: K GTP
parameter: Kd (nM)
Numbers only, in nM.

Query block: Determine from records and report Kd for Nc1nc2c(ncn2[C@@H]2O[C@H](COP(=O)(O)OP(=O)(O)OP(=O)(O)O)[C@@H](O)[C@H]2O)c(=O)[nH]1
Result block: 150

###

- target-desc: P. aeruginosa EF-Tu (Pseudomonas aeruginosa, UniProt P09591)
- Construct: made in house; host or cells: E. coli Rosetta 2(DE3), pET101/D-TOPO
- protocol-notes: Equilibrium dissociation constants of EF-Tu·GDP and EF-Tu·GTP complexes (dilution, nitrocellulose filter binding)
- study-conditions: EF-Ts 0.5 ×10^−3 μM; 0°C; read-out: K GTP
parameter: Kd

Query block: Check the records and state Kd for Nc1nc2c(ncn2[C@@H]2O[C@H](COP(=O)(O)OP(=O)(O)OP(=O)(O)O)[C@@H](O)[C@H]2O)c(=O)[nH]1
Result block: 156 nM

###

- target-desc: P. aeruginosa EF-Tu (Pseudomonas aeruginosa)
- Construct: made in house; host or cells: E. coli Rosetta 2(DE3), pET101/D-TOPO
- protocol-notes: Equilibrium dissociation constants of EF-Tu·GDP and EF-Tu·GTP complexes (dilution, nitrocellulose filter binding)
- study-conditions: EF-Ts 0; 23°C; read-out: K GTP
parameter: Kd (µM)
Numbers only, in µM.

Query block: Enter measured Kd, system P. aeruginosa EF-Tu (Pseudomonas aeruginosa), for the molecule shown: Nc1nc2c(ncn2[C@@H]2O[C@H](COP(=O)(O)OP(=O)(O)OP(=O)(O)O)[C@@H](O)[C@H]2O)c(=O)[nH]1
Result block: 0.123

###

- target-desc: P. aeruginosa EF-Tu (Pseudomonas aeruginosa)
- Construct: made in house; host or cells: E. coli Rosetta 2(DE3), pET101/D-TOPO
- protocol-notes: Equilibrium dissociation constants of EF-Tu·GDP and EF-Tu·GTP complexes (dilution, nitrocellulose filter binding)
- study-conditions: EF-Ts 0.5 ×10^−3 μM; 23°C; read-out: K GDP
parameter: Kd (nM)
Answers are plain numbers, in nM.

Query block: Supply recorded Kd for Nc1nc2c(ncn2[C@@H]2O[C@H](COP(=O)(O)OP(=O)(O)O)[C@@H](O)[C@H]2O)c(=O)[nH]1 here.
Result block: 30

###

- target-desc: P. aeruginosa EF-Tu (Pseudomonas aeruginosa, UniProt P09591)
- Construct: made in house; host or cells: E. coli Rosetta 2(DE3), pET101/D-TOPO
- protocol-notes: Equilibrium dissociation constants of EF-Tu·GDP and EF-Tu·GTP complexes (dilution, nitrocellulose filter binding)
- study-conditions: EF-Ts 0.5 ×10^−3 μM; 0°C; read-out: K GDP
parameter: Kd
Remember to put the unit after the number in your answer.

Query block: Answer briefly: Kd recorded on P. aeruginosa EF-Tu (Pseudomonas aeruginosa, UniProt P09591) for Nc1nc2c(ncn2[C@@H]2O[C@H](COP(=O)(O)OP(=O)(O)O)[C@@H](O)[C@H]2O)c(=O)[nH]1 [GDP]
Result block: 43 nM

###

- target-desc: P. aeruginosa EF-Tu (Pseudomonas aeruginosa)
- Construct: made in house; host or cells: E. coli Rosetta 2(DE3), pET101/D-TOPO
- protocol-notes: Equilibrium dissociation constants of EF-Tu·GDP and EF-Tu·GTP complexes (dilution, nitrocellulose filter binding)
- study-conditions: EF-Ts 0; 37°C; read-out: K GDP
parameter: Kd (nM)
Give bare numbers, in nM.

Query block: Supply recorded Kd for Nc1nc2c(ncn2[C@@H]2O[C@H](COP(=O)(O)OP(=O)(O)O)[C@@H](O)[C@H]2O)c(=O)[nH]1 here.
Result block: 72

###

- target-desc: P. aeruginosa EF-Tu (Pseudomonas aeruginosa)
- Construct: made in house; host or cells: E. coli Rosetta 2(DE3), pET101/D-TOPO
- protocol-notes: Equilibrium dissociation constants of EF-Tu·GDP and EF-Tu·GTP complexes (dilution, nitrocellulose filter binding)
- study-conditions: EF-Ts 0; 37°C; read-out: K GTP
parameter: Kd (nM)
Give bare numbers, in nM.

Query block: Determine its reported Kd: Nc1nc2c(ncn2[C@@H]2O[C@H](COP(=O)(O)OP(=O)(O)OP(=O)(O)O)[C@@H](O)[C@H]2O)c(=O)[nH]1 [GTP]
Result block: 175

###

- target-desc: P. aeruginosa EF-Tu (Pseudomonas aeruginosa)
- Construct: made in house; host or cells: E. coli Rosetta 2(DE3), pET101/D-TOPO
- protocol-notes: Equilibrium dissociation constants of EF-Tu·GDP and EF-Tu·GTP complexes (dilution, nitrocellulose filter binding)
- study-conditions: EF-Ts 0; 23°C; read-out: K GDP
parameter: pKd
One number for each entry, as −log10 of the molar value.

Query block: Hello, please tell me recorded pKd for this one: Nc1nc2c(ncn2[C@@H]2O[C@H](COP(=O)(O)OP(=O)(O)O)[C@@H](O)[C@H]2O)c(=O)[nH]1 [GDP]
Result block: 7.42
